- test-target: D(2) dopamine receptor (Rattus norvegicus, UniProt P61169)
- Sequence (P61169 whole entry): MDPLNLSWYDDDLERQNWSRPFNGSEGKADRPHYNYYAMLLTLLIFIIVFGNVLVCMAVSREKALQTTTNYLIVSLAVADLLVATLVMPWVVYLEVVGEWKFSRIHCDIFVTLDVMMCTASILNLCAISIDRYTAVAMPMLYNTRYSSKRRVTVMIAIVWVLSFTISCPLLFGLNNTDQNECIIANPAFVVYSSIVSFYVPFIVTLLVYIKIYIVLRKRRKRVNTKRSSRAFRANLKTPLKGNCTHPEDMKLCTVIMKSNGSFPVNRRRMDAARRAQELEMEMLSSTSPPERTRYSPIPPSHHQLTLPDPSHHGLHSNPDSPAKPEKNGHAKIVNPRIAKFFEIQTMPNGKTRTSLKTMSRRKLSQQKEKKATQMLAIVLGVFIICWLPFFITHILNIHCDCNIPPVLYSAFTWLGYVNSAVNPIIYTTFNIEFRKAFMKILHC
- method-description: In vitro by displacement of [3H]raclopride from Dopamine receptor D2 on rat striatal membrane
measurement-kind: Ki

Form: molecule = Cn1c(N2CCNCC2)nc2ccccc21 ; Ki = > 1 µM

----------
- test-target: 5-hydroxytryptamine receptor 4 (Cavia porcellus)
- Sequence (O70528 whole entry): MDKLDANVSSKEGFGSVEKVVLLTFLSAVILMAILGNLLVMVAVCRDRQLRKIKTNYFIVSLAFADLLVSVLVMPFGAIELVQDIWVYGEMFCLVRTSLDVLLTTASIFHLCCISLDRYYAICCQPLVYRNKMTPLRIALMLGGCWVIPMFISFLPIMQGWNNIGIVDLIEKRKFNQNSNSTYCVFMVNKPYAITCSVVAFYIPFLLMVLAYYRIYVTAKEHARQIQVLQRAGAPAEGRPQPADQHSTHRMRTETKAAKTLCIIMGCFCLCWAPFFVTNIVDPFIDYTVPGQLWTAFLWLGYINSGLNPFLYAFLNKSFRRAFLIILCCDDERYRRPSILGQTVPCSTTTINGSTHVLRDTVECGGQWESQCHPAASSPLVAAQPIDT
measurement-kind: Ki

Form: compound = Cn1c(N2CCNCC2)nc2ccccc21 ; Ki = > 1000 nM

----------
- test-target: Serotonin 3 (5-HT3) receptor (Rattus norvegicus, UniProt P35563+Q9JJ16)
- Sequence (P35563 whole entry): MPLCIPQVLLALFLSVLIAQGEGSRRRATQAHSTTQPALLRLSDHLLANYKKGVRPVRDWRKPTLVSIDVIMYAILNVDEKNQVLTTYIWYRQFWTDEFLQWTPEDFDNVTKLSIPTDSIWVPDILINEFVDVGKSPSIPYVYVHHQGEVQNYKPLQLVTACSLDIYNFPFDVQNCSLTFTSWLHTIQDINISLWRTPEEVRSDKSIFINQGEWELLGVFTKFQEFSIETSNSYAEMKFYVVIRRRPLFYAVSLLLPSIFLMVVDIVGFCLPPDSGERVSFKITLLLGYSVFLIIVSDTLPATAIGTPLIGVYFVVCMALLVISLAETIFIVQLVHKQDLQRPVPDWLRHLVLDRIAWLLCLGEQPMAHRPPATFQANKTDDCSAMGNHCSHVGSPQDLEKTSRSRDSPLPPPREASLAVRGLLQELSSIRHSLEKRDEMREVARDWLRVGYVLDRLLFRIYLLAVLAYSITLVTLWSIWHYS
- Sequence (Q9JJ16 whole entry): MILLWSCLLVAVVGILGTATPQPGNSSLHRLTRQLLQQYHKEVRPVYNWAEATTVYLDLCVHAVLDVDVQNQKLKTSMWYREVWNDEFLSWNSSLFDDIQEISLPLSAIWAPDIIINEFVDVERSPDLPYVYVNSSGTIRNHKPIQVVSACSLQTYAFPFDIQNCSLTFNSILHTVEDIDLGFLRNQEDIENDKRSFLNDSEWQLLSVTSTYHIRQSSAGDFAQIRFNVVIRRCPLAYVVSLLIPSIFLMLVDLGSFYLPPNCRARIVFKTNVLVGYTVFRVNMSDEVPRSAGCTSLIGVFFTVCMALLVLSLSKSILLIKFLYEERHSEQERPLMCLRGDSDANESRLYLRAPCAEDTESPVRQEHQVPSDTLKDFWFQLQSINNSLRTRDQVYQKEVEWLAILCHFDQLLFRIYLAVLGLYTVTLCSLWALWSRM
- method-description: In vitro by displacement of [3H]LY-278584 from 5-hydroxytryptamine 3 receptor on rat entorhinal cortex
measurement-kind: pKi
Numbers only, as −log10 of the molar value.

* CN1[C@@H]2CC[C@H]1C[C@@H](OC(=O)c1c[nH]c3ccccc13)C2 | 8.80

Would you kindly look at the next entry?
# Cn1c(N2CCNCC2)nc2ccccc21 with Serotonin 3 (5-HT3) receptor (Rattus norvegicus, UniProt P35563+Q9JJ16): pKi is 7.30
